Measured pIC50 by item
Tested on: HT-29
Experiment: Cytotoxicity against human HT-29 cells after 96 hrs by SRB assay
Assay type: functional, cell-based
Settings: HT-29, 96 h
Scale note: pIC50 = -log10(concentration in M).

compound: C=C(C)[C@@H]1CC[C@]2([C@H]3CO3)CC[C@]3(C)[C@H](CC[C@@H]4[C@@]5(C)CC[C@H](O)C(C)(C)[C@@H]5CC[C@]43C)[C@@H]12
pIC50: 4.74
--
compound: C=C(C)[C@@H]1CC[C@]2([C@H](O)[C@H]3C=CC(=O)O3)CC[C@]3(C)[C@H](CC[C@@H]4[C@@]5(C)CC[C@H](OC(C)=O)C(C)(C)[C@@H]5CC[C@]43C)[C@@H]12
pIC50: 4.52
--
compound: CCOC(=O)C[C@H]1O[C@@H]2[C@@H]3[C@H]4CC[C@@H]5[C@@]6(C)CC[C@H](OC(C)=O)C(C)(C)[C@@H]6CC[C@@]5(C)[C@]4(C)CC[C@@]31CCC2(C)C
pIC50: 4.78
--
compound: C=C(C)[C@@H]1CC[C@]2(C(=O)[C@H]3CCOC3=O)CC[C@]3(C)[C@H](CC[C@@H]4[C@@]5(C)CC[C@H](OC(C)=O)C(C)(C)[C@@H]5CC[C@]43C)[C@@H]12 (mixture of isomers)
pIC50: 4.83

# next compound below
Request: # returns recorded pIC50 (system: HT-29) for C=C(C)[C@@H]1CC[C@]2(C(=O)CC(=O)OCC)CC[C@]3(C)[C@H](CC[C@@H]4[C@@]5(C)CC[C@H](OC)C(C)(C)[C@@H]5CC[C@]43C)[C@@H]12
Result: 5.39

----------
Test system: SW480
Assay: Cytotoxicity against human SW480 cells after 96 hrs by SRB assay
Assay type: functional, cell-based
Details: SW480, 96 h
Measured pIC50 by item
Scale note: pIC50 = -log10(concentration in M).

Worked examples follow.
molecule: CCOC(=O)CC(=O)C[C@H]1O[C@@H]2[C@@H]3[C@H]4CC[C@@H]5[C@@]6(C)CC[C@H](OC(C)=O)C(C)(C)[C@@H]6CC[C@@]5(C)[C@]4(C)CC[C@@]31CCC2(C)C
value type: pIC50
number: 5.24
--
molecule: C=C(C)[C@@H]1CC[C@]2(C(=O)[C@H]3CCOC3=O)CC[C@]3(C)[C@H](CC[C@@H]4[C@@]5(C)CC[C@H](OC(C)=O)C(C)(C)[C@@H]5CC[C@]43C)[C@@H]12 (mixture of isomers)
value type: pIC50
number: 5.02
--
molecule: C=C(C)[C@@H]1CC[C@]2([C@@H]3O[C@H]3C(=O)N(CC)CC)CC[C@]3(C)[C@H](CC[C@@H]4[C@@]5(C)CC[C@H](OC(C)=O)C(C)(C)[C@@H]5CC[C@]43C)[C@@H]12
value type: pIC50
number: 5.22

# next molecule below
Request: # returns recorded pIC50 (system: SW480) for C=C(C)[C@@H]1CC[C@]2([C@H](O)[C@H]3CCOC3=O)CC[C@]3(C)[C@H](CC[C@@H]4[C@@]5(C)CC[C@H](OC(C)=O)C(C)(C)[C@@H]5CC[C@]43C)[C@@H]12
Result: 4.79

----------
Tested on: A549
Test: Growth inhibition of human A549 cells at 30 uM after 96 hrs by SRB assay
Format: functional, cell-based
Calls of active or inactive are those of the source. No cut-off for these calls is given here.
value type: growth inhibition (GI)

mol smiles: C=C(C)[C@@H]1CC[C@]2(/C=C3\CCOC3=O)CC[C@]3(C)[C@H](CC[C@@H]4[C@@]5(C)CC[C@H](OC(C)=O)C(C)(C)[C@@H]5CC[C@]43C)[C@@H]12
value type: growth inhibition (GI)
result: inactive
//
mol smiles: C=C(C)[C@@H]1CC[C@]2([C@@H]3O[C@@H]3C#N)CC[C@]3(C)[C@H](CC[C@@H]4[C@@]5(C)CC[C@H](OC(C)=O)C(C)(C)[C@@H]5CC[C@]43C)[C@@H]12
value type: growth inhibition (GI)
result: inactive
//
mol smiles: C=C(C)[C@@H]1CC[C@]2(/C=C/C(=O)OCC)CC[C@]3(C)[C@H](CC[C@@H]4[C@@]5(C)CC[C@H](OC)C(C)(C)[C@@H]5CC[C@]43C)[C@@H]12
value type: growth inhibition (GI)
result: inactive
